B1: Zinc finger homeobox protein 3, residues 2147 to 2202; numbered along this chain, Q15911 (parent)
chain: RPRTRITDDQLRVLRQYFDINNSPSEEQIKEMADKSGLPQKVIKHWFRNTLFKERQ

- Variants of: B1
- assay.summary: abundance fitness (aPCA) (normalised: wild type 0, dead -1); higher = more abundant; growth selection in yeast, the domain comes from the species named
- cond: Homo sapiens
Returns one of TRUE or FALSE; TRUE when abundance fitness is >= -0.2.

1) RPRTRITDDQLRVLRQYFDINNSPSEEQIKEMADKSGLQQKVIKHWFRNTLFKERQ	TRUE
2) RPRTRITDDQLRVLRQYFDIHNSPSEEQIKEMADKSGLPQKVIKHWFRNTLFKERQ	TRUE
3) RPRTRITDDQLRVLRQYYDINNSPSEEQIKEMADKSGLPQKVIKHWFRNTLFKERQ	TRUE
4) RPRTRITDDQLRVLRQYFDINNSPSEEQIKEMADKSGLPQKDIKHWFRNTLFKERQ	TRUE
5) RPRTRITDDQLRVLRQYFDINNSPSEEQIKEMADKSGLPQKVIKHWFRNTGFKERQ	TRUE
6) RPRTRITDDQLRVLRQYFDINNSPSEEQIKEMADKSHLPQKVIKHWFRNTLFKERQ	FALSE
7) RPRTRITDDQLRVLRQYFDINNSPSEEQIKEMADKSGLPQKVIKHAFRNTLFKERQ	FALSE
8) RPRTRITDDQLRVLRQMFDINNSPSEEQIKEMADKSGLPQKVIKHWFRNTLFKERQ	TRUE
9) RPRTRITDDQLRVLRQYFDINNSLSEEQIKEMADKSGLPQKVIKHWFRNTLFKERQ	FALSE
10) RPRTRITDDQLRVLRQYFDINNSPSEEQIAEMADKSGLPQKVIKHWFRNTLFKERQ	TRUE
11) RPRTRITDDQLRVLRQYFDINNSPSEEQIKEMADKSGLPQKVIKHWFRNTLFKEIQ	TRUE
12) RPRTRITDDQLRVLRQYFDINNSPSEEQIKEMADKSGLPQKVIKHWYRNTLFKERQ	FALSE
13) RPRTRITDDQLRVLRQYFDINNSPSEHQIKEMADKSGLPQKVIKHWFRNTLFKERQ	TRUE
14) RPRRRITDDQLRVLRQYFDINNSPSEEQIKEMADKSGLPQKVIKHWFRNTLFKERQ	FALSE
15) RPRTRITDDQLRVLRQYFDINNSPSEEQIKEMADKVGLPQKVIKHWFRNTLFKERQ	TRUE
16) RPRTRITDDQLRVLRQYFDINNSPSEEQIKEMADKSGLPQKVIKHSFRNTLFKERQ	FALSE
17) RPRTRITDDQLRVLRQYFDINNSPSEEQIKEMADKKGLPQKVIKHWFRNTLFKERQ	FALSE
18) RPRTRITDDQLRVLRQYFDINNSPSEEQIKEMADESGLPQKVIKHWFRNTLFKERQ	TRUE
19) RPRTRITDDQLRVLRQYFDINNSPSEEQIKELADKSGLPQKVIKHWFRNTLFKERQ	TRUE
20) RPRTRITDDQLRVLRQWFDINNSPSEEQIKEMADKSGLPQKVIKHWFRNTLFKERQ	TRUE
21) RPRTRITDDQLRVLRQYFDINNSPSEEQIKEMADKSGLPQKVIKHCFRNTLFKERQ	FALSE
22) RPRTRITDDQLRVLRQYFDINNSPSEEQIKEMADKSGLPQKVIKHWFGNTLFKERQ	TRUE
23) RPRTRITDDQLRVLRQYFDINNSPSEEQIKEMADKSGLPQKVIKHWFRNTFFKERQ	FALSE
24) RPRTRITDDQLRVLRQYFDINNSPSEEQIKEMADKSGLHQKVIKHWFRNTLFKERQ	TRUE
25) RPRTRITDDQLRVLRQYFDINNSPSEEQIGEMADKSGLPQKVIKHWFRNTLFKERQ	TRUE
26) RPRTRITDDQLRVLRQYFDINNSPSEEQIKEMADKSGLPQKVIKHWFKNTLFKERQ	TRUE
27) RPRTRITDDQLRVLRQYFDINNSPSEEQIKEMADKSGLPQKVIKHWQRNTLFKERQ	FALSE
28) RPRTRITDDQLRVLRQYFDINNSPSEEQIKEMADKSKLPQKVIKHWFRNTLFKERQ	TRUE
29) RPRTRITDDQLRVLRQPFDINNSPSEEQIKEMADKSGLPQKVIKHWFRNTLFKERQ	FALSE
30) RPRTRITDDQLRVLRQYFDINNSPSEEQIKEMADKSGLPVKVIKHWFRNTLFKERQ	TRUE
31) RPRTRITDDQLRVLRQYFQINNSPSEEQIKEMADKSGLPQKVIKHWFRNTLFKERQ	FALSE
32) RPRTRITDDQLRVLRQYFDINNSPSEEQIKEMADKSGLPQKFIKHWFRNTLFKERQ	FALSE
33) RPRTRITDDQLRVLRQYFDINNSPSEEQIKEMADKSGLPQKVIKHWFRNTLTKERQ	TRUE
34) RPRTRITDDQLRVLRQYFDINNSPSEEQIKEMADKSGLPQKVIKHWFRNTLCKERQ	TRUE
35) RPRTRITDGQLRVLRQYFDINNSPSEEQIKEMADKSGLPQKVIKHWFRNTLFKERQ	TRUE
36) RPRTRITDDQLRVLRQYFDINNEPSEEQIKEMADKSGLPQKVIKHWFRNTLFKERQ	TRUE
37) RPRTRITDDQLRVLRQYFDINNSPSEEQIKEMADKSGLPQKVIKHWFRNELFKERQ	TRUE
38) RPRTRITDDQLRTLRQYFDINNSPSEEQIKEMADKSGLPQKVIKHWFRNTLFKERQ	TRUE
39) RPRTRITDDQYRVLRQYFDINNSPSEEQIKEMADKSGLPQKVIKHWFRNTLFKERQ	FALSE
40) RPRTRITDDQLRVLRQYCDINNSPSEEQIKEMADKSGLPQKVIKHWFRNTLFKERQ	TRUE
41) RPRTRITDDQLRVLRQYFDINNSPSEEQIKEMADKSGLPQKVGKHWFRNTLFKERQ	FALSE
42) RPRTRITDDQLRVLRQYFDINNSPSEEQIKEMADKSGLPGKVIKHWFRNTLFKERQ	TRUE
43) RPRTRITDDQLRVLRQYFDINNSPSEEQIKEMADKSGLPQKVIKHWFRNNLFKERQ	TRUE
44) RPRTRIRDDQLRVLRQYFDINNSPSEEQIKEMADKSGLPQKVIKHWFRNTLFKERQ	TRUE
45) RPRTRITDDQLRVLRQYFDINNSPSEEQIKEMADKEGLPQKVIKHWFRNTLFKERQ	TRUE
46) RPRTRITDDQRRVLRQYFDINNSPSEEQIKEMADKSGLPQKVIKHWFRNTLFKERQ	TRUE
47) RPRTRITDDQLRVLRQYFDINNSPSEEQIKEMADKSGLPQKVIKHWFRMTLFKERQ	TRUE
48) FPRTRITDDQLRVLRQYFDINNSPSEEQIKEMADKSGLPQKVIKHWFRNTLFKERQ	FALSE
49) RPRTRITDDQLRVLRQYFDINNSPSEEQIKEMADKSGVPQKVIKHWFRNTLFKERQ	TRUE
50) RPRTRISDDQLRVLRQYFDINNSPSEEQIKEMADKSGLPQKVIKHWFRNTLFKERQ	TRUE
51) RPRTRITDDQLRVLRQYFDINNSPSEEQIKEMADKSGLPQQVIKHWFRNTLFKERQ	TRUE
52) RPRTRITDDQLRVLRQYFDINNSPSELQIKEMADKSGLPQKVIKHWFRNTLFKERQ	TRUE
53) RPRTRITDDQLRVLRQYFDINNSPSEEQIKEMADKSGLPQKVIKHWFRNTLFKELQ	TRUE
54) RPRTRITDDQLRVLRQYFDINNSPSEEQIKEMADKSGLPQKVIKHWFRKTLFKERQ	TRUE
55) RPRNRITDDQLRVLRQYFDINNSPSEEQIKEMADKSGLPQKVIKHWFRNTLFKERQ	TRUE
56) RPRTRITDDQLRVLRQYFDINHSPSEEQIKEMADKSGLPQKVIKHWFRNTLFKERQ	TRUE
57) RPGTRITDDQLRVLRQYFDINNSPSEEQIKEMADKSGLPQKVIKHWFRNTLFKERQ	TRUE
58) RPRTRITDDQLRVLRQYFDINNSPSEEQIKEMADKSGLPQKVIKHWFRVTLFKERQ	TRUE
59) RPRTRITDVQLRVLRQYFDINNSPSEEQIKEMADKSGLPQKVIKHWFRNTLFKERQ	TRUE
60) RPRTRITDDQLRVLRQYFDINNSPSEEQIKESADKSGLPQKVIKHWFRNTLFKERQ	FALSE
61) RPRTRITDDQLRVLRQYFDINNSPSEEQIKEMADKSGLLQKVIKHWFRNTLFKERQ	FALSE
62) RPRTRITDDQLRVLRQYFDINNSPAEEQIKEMADKSGLPQKVIKHWFRNTLFKERQ	TRUE
63) RPRTRITDDQLRVLRQYFDINNSPSECQIKEMADKSGLPQKVIKHWFRNTLFKERQ	TRUE
64) RPRTRITDDQLRVLRQYFDINNSPSEEQIKEMADKSGLPQKVIKEWFRNTLFKERQ	TRUE
65) RPRTRITDDQLRVLRQYFDLNNSPSEEQIKEMADKSGLPQKVIKHWFRNTLFKERQ	TRUE
66) RPRTRITDDQLRVLRQDFDINNSPSEEQIKEMADKSGLPQKVIKHWFRNTLFKERQ	TRUE
67) RPRTRITDDQLRVYRQYFDINNSPSEEQIKEMADKSGLPQKVIKHWFRNTLFKERQ	FALSE
68) RPRTRITDDQTRVLRQYFDINNSPSEEQIKEMADKSGLPQKVIKHWFRNTLFKERQ	TRUE
69) RPRTRITDDQLRVLRQYFDINNSPSEEYIKEMADKSGLPQKVIKHWFRNTLFKERQ	FALSE
70) RPRTRITDDQLRVLRQYFDINNSPSEEQIKEMADKSGLPQKVIKHWFRNVLFKERQ	TRUE
71) RPRTRITDDQLRVLRQYFDINNSPSEEQIKEMADKSGLPQKVIKHEFRNTLFKERQ	FALSE
72) RPRTRITDDQLRVLRQYFDINNSPSEEQIKEMADKSGLPMKVIKHWFRNTLFKERQ	TRUE
73) RPRTQITDDQLRVLRQYFDINNSPSEEQIKEMADKSGLPQKVIKHWFRNTLFKERQ	TRUE
74) RPRTRITDDQLRVLTQYFDINNSPSEEQIKEMADKSGLPQKVIKHWFRNTLFKERQ	TRUE
75) RPRTRITDDQLRVLRQYFDINNSPSEEQIKEMYDKSGLPQKVIKHWFRNTLFKERQ	FALSE
76) RPRTRITDDQLRLLRQYFDINNSPSEEQIKEMADKSGLPQKVIKHWFRNTLFKERQ	TRUE
77) RPRTRLTDDQLRVLRQYFDINNSPSEEQIKEMADKSGLPQKVIKHWFRNTLFKERQ	TRUE
78) RPRTRITDDQLRVLRQYFDINNSPSEEQIKEMADFSGLPQKVIKHWFRNTLFKERQ	FALSE
79) RPRTRITDDQLRVLRQYFDINNNPSEEQIKEMADKSGLPQKVIKHWFRNTLFKERQ	TRUE
80) RPRTRITDDQLRVLRQYFDINNSPSEEQIKEMADKSGLPQKVIKHWFRNTMFKERQ	TRUE
81) RPRTEITDDQLRVLRQYFDINNSPSEEQIKEMADKSGLPQKVIKHWFRNTLFKERQ	TRUE
82) RPRTRITDDQLRVLRQYFDYNNSPSEEQIKEMADKSGLPQKVIKHWFRNTLFKERQ	FALSE
83) RPRTRITDDQLRVLRQYFDINNSPSMEQIKEMADKSGLPQKVIKHWFRNTLFKERQ	TRUE
84) RPRTRITDDQLRSLRQYFDINNSPSEEQIKEMADKSGLPQKVIKHWFRNTLFKERQ	TRUE
85) RPRTRITDDQLRVLRQYFDINNSPSEEQIKEMADKSGLPSKVIKHWFRNTLFKERQ	TRUE
86) RPRTRITDDQLRVLRQYFDINNSPSEEQIKFMADKSGLPQKVIKHWFRNTLFKERQ	FALSE
87) RPRTRITDDQLRVLRQRFDINNSPSEEQIKEMADKSGLPQKVIKHWFRNTLFKERQ	FALSE
88) RPRTRITDDQLRVLRQYFDINNSPSEEQIKEMADKSGYPQKVIKHWFRNTLFKERQ	FALSE
89) RPRTRITDDQLRVLPQYFDINNSPSEEQIKEMADKSGLPQKVIKHWFRNTLFKERQ	FALSE
